Reported relative binding activity (% of WT) by item:
target-entity: T1, EGFI-Cr1 Q45A (human, UniProt P16422 24-63)
T1 construct: not shown: the constant region of human immunoglobulin gamma 1 heavy chain (Cr1) fused at the C-terminus
T1 chain: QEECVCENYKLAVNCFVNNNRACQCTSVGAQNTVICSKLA
method: direct ELISA, coated EGFI-Cr1 fusion, 0.1 µg/ml antibody
Record the value in %, omitting the unit from your answer.

Below are worked cases with known answers.
>  <binder>
murine monoclonal antibody 2D11 (antibody, mouse IgG1, V domains shown, Mouse IgG1, kappa, from hybridoma; also called m322-2D11.19) VH: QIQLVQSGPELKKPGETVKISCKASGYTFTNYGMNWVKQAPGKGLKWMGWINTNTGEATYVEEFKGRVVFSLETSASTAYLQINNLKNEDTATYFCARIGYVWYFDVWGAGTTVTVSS VL: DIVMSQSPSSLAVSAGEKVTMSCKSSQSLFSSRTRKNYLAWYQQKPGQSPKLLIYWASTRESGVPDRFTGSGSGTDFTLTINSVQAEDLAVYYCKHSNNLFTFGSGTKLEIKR

>  <relative binding activity (% of WT), %>
89

$$$$
>  <binder>
murine monoclonal antibody 1F10 (antibody, mouse IgG1, V domains shown, Mouse IgG1, lambda 1, from hybridoma; also called m338-1F10.3) VH: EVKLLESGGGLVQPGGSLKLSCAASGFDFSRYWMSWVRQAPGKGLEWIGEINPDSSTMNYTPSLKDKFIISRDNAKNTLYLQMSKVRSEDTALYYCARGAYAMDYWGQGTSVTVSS VL: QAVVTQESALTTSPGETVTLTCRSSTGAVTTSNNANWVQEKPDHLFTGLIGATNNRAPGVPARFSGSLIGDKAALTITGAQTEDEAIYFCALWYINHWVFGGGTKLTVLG

>  <relative binding activity (% of WT), %>
84

$$$$

Continue with the binder presented below.
relative binding activity (% of WT) reading for murine monoclonal antibody 12H8 (antibody, mouse IgG2a, V domains shown, Mouse IgG2a, kappa, from hybridoma; also called m342-12H8.3; m12H8) VH: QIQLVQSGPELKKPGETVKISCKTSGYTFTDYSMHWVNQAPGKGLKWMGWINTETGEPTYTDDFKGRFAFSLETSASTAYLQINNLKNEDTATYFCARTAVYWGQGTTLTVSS VL: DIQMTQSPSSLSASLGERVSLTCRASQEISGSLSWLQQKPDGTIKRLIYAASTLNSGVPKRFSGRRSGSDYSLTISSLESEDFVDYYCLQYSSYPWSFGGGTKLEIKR : 89

Taken from patent US20110165161A1.
